Assay: Study 200912: single dose 100-200 mg, SDD versus nonmicronized API PiB, healthy subjects
Assay type: in vivo, human
Details: human, plasma, oral, 200 mg, single 200 mg API PiB, fasted, without ritonavir, Study 200912; median (range); read-out: C24
QUANTITY: concentration at 24 h (ng/mL)
Give just the number in ng/mL; leave the unit off.

Which concentration at 24 h value belongs to "CC(C)C1=C2[C@H]3CC[C@@H]4[C@@]5(C)CC[C@H](OC(=O)CC(C)(C)C(=O)O)C(C)(C)[C@@H]5CC[C@@]4(C)[C@]3(C)CC[C@@]2([C@@H](O)CN(CCN(C)C)Cc2ccc(Cl)cc2)CC1=O" ?
2.85

###

Test: Study HMI116787: single ascending dose, food effect and RTV boosting, SDD PiB, healthy subjects
Type: in vivo, human
Settings: human, plasma, oral; single 10 mg SDD PiB, fasted, with ritonavir 100 mg QD (Day 10 of 12), Study HMI116787; geometric mean (95% CI); read-out: t½ (converted)
Description: This study was a first‐in‐human, double‐blind, randomized, placebo‐controlled, single dose escalation study of GSK2838232 in healthy subjects conducted in two sequential cohorts with four dosing visits in each cohort. […] Extracts were analyzed using HPLC (Shimadzu, Nexera, 30 series) and tandem mass spectrometry detection (HPLC‐MS/MS). […] The lower limit of quantification (LLQ) was 0.5 ng/mL, using a 50 μL aliquot of K2EDTA acidified plasma. The higher limit of quantification (HLQ) was 500 ng/mL. […]
QUANTITY: half-life (h)
Give just the number in h; leave the unit off.

Which half-life value belongs to "CC(C)C1=C2[C@H]3CC[C@@H]4[C@@]5(C)CC[C@H](OC(=O)CC(C)(C)C(=O)O)C(C)(C)[C@@H]5CC[C@@]4(C)[C@]3(C)CC[C@@]2([C@@H](O)CN(CCN(C)C)Cc2ccc(Cl)cc2)CC1=O" ?
33.7

###

Assay: Study 204953 Part 2: repeat dosing for 11 days with RTV QD or 200 mg BID unboosted
Assay type: in vivo, human
Conditions: human, plasma, oral, Study Day 11, 200 mg QD + RTV (capsules), Study 204953; geometric mean (95% CI); read-out: t½ (converted)
QUANTITY: half-life
Don't forget the unit after the number, please.

Which half-life value belongs to "CC(C)C1=C2[C@H]3CC[C@@H]4[C@@]5(C)CC[C@H](OC(=O)CC(C)(C)C(=O)O)C(C)(C)[C@@H]5CC[C@@]4(C)[C@]3(C)CC[C@@]2([C@@H](O)CN(CCN(C)C)Cc2ccc(Cl)cc2)CC1=O" ?
18 h

###

Experiment: Study HMI116787: single ascending dose, food effect and RTV boosting, SDD PiB, healthy subjects
Assay type: in vivo, human
Details: human, plasma, oral; single 5 mg SDD PiB, fasted, without ritonavir, Study HMI116787; median (range); read-out: C24
Experimental: This study was a first‐in‐human, double‐blind, randomized, placebo‐controlled, single dose escalation study of GSK2838232 in healthy subjects conducted in two sequential cohorts with four dosing visits in each cohort. […] Extracts were analyzed using HPLC (Shimadzu, Nexera, 30 series) and tandem mass spectrometry detection (HPLC‐MS/MS). […] The lower limit of quantification (LLQ) was 0.5 ng/mL, using a 50 μL aliquot of K2EDTA acidified plasma. The higher limit of quantification (HLQ) was 500 ng/mL. […]
QUANTITY: concentration at 24 h (ng/mL)
Give just the number in ng/mL; leave the unit off.

Which concentration at 24 h value belongs to "CC(C)C1=C2[C@H]3CC[C@@H]4[C@@]5(C)CC[C@H](OC(=O)CC(C)(C)C(=O)O)C(C)(C)[C@@H]5CC[C@@]4(C)[C@]3(C)CC[C@@]2([C@@H](O)CN(CCN(C)C)Cc2ccc(Cl)cc2)CC1=O" ?
0

###

Assay: Study 204953 Part 2: repeat dosing for 11 days with RTV QD or 200 mg BID unboosted
Format: in vivo, human
Conditions: human, plasma, oral, 50 mg, Study day 1, 50 mg QD + RTV (PiB), τ = 24 hours, Study 204953; median (range); read-out: Cτ
QUANTITY: concentration at 24 h (ng/mL)
Give just the number in ng/mL; leave the unit off.

Which concentration at 24 h value belongs to "CC(C)C1=C2[C@H]3CC[C@@H]4[C@@]5(C)CC[C@H](OC(=O)CC(C)(C)C(=O)O)C(C)(C)[C@@H]5CC[C@@]4(C)[C@]3(C)CC[C@@]2([C@@H](O)CN(CCN(C)C)Cc2ccc(Cl)cc2)CC1=O" ?
11.1

###

Assay: Study 204953 Part 2: repeat dosing for 11 days with RTV QD or 200 mg BID unboosted
Assay type: in vivo, human
Conditions: human, plasma, oral, Study Day 11, 100 mg QD + RTV (capsules), τ = 24 hours, Study 204953; median (range); read-out: Cτ
QUANTITY: concentration at 24 h (ng/mL)
Give just the number in ng/mL; leave the unit off.

Which concentration at 24 h value belongs to "CC(C)C1=C2[C@H]3CC[C@@H]4[C@@]5(C)CC[C@H](OC(=O)CC(C)(C)C(=O)O)C(C)(C)[C@@H]5CC[C@@]4(C)[C@]3(C)CC[C@@]2([C@@H](O)CN(CCN(C)C)Cc2ccc(Cl)cc2)CC1=O" ?
89.3

###

Experiment: Study HMI116787: single ascending dose, food effect and RTV boosting, SDD PiB, healthy subjects
Type: in vivo, human
Details: human, plasma, oral; single 100 mg SDD PiB, fasted, without ritonavir, Study HMI116787; median (range); read-out: C24
QUANTITY: concentration at 24 h
Don't forget the unit after the number, please.

Which concentration at 24 h value belongs to "CC(C)C1=C2[C@H]3CC[C@@H]4[C@@]5(C)CC[C@H](OC(=O)CC(C)(C)C(=O)O)C(C)(C)[C@@H]5CC[C@@]4(C)[C@]3(C)CC[C@@]2([C@@H](O)CN(CCN(C)C)Cc2ccc(Cl)cc2)CC1=O" ?
5.93 ng/mL

###

Assay: Study 200912: single dose 100-200 mg, SDD versus nonmicronized API PiB, healthy subjects
Type: in vivo, human
Details: human, plasma, oral, 200 mg, single 200 mg SDD PiB, fasted, without ritonavir, Study 200912; geometric mean (95% CI); read-out: t½ (converted)
Protocol: This was a double‐blind, randomized, placebo‐controlled, single‐dose escalation study to investigate the safety, tolerability, and PK of higher single doses of GSK2838232 (Part A) and to evaluate the relative bioavailability of the SDD and crystalline Active Pharmaceutical Ingredient (API) of GSK2838232 (Part B) in healthy subjects dosed as PiB. […] Extracts were analyzed using HPLC (Shimadzu, Nexera, 30 series) and tandem mass spectrometry detection (HPLC‐MS/MS). […]
QUANTITY: half-life

Which half-life value belongs to CC(C)C1=C2[C@H]3CC[C@@H]4[C@@]5(C)CC[C@H](OC(=O)CC(C)(C)C(=O)O)C(C)(C)[C@@H]5CC[C@@]4(C)[C@]3(C)CC[C@@]2([C@@H](O)CN(CCN(C)C)Cc2ccc(Cl)cc2)CC1=O [GSK2838232] ?
16.6 h

###

Experiment: Study 204953 Part 2: repeat dosing for 11 days with RTV QD or 200 mg BID unboosted
Type: in vivo, human
Details: human, plasma, oral, 100 mg, Study day 1, 100 mg QD + RTV (capsules), τ = 24 hours, Study 204953; geometric mean (95% CI); read-out: AUC(0‐τ)
QUANTITY: AUC (ng·h/mL)
Give just the number in ng·h/mL; leave the unit off.

Which AUC value belongs to "CC(C)C1=C2[C@H]3CC[C@@H]4[C@@]5(C)CC[C@H](OC(=O)CC(C)(C)C(=O)O)C(C)(C)[C@@H]5CC[C@@]4(C)[C@]3(C)CC[C@@]2([C@@H](O)CN(CCN(C)C)Cc2ccc(Cl)cc2)CC1=O" ?
635

###

Test: Study 204953 Part 1A: single doses 50-250 mg API PiB with RTV, healthy subjects
Assay type: in vivo, human
Details: human, plasma, oral, single 100 mg API PiB, fasted, with ritonavir (2 days predosing), geometric mean (95% CI), read-out: t½ (converted)
QUANTITY: half-life (h)
Give just the number in h; leave the unit off.

Which half-life value belongs to CC(C)C1=C2[C@H]3CC[C@@H]4[C@@]5(C)CC[C@H](OC(=O)CC(C)(C)C(=O)O)C(C)(C)[C@@H]5CC[C@@]4(C)[C@]3(C)CC[C@@]2([C@@H](O)CN(CCN(C)C)Cc2ccc(Cl)cc2)CC1=O [GSK2838232] ?
17.9

###

Test: Study 204953 Part 2: repeat dosing for 11 days with RTV QD or 200 mg BID unboosted
Format: in vivo, human
Details: human, plasma, oral, 20 mg, Study day 1, 20 mg QD + RTV (PiB), τ = 24 hours, Study 204953; median (range); read-out: Cτ
Procedure: This study was planned as an extension of the previously conducted single‐ and multiple‐dose escalation studies described above. […] Extracts were analyzed using HPLC (Shimadzu, Nexera, 30 series) and tandem mass spectrometry detection (HPLC‐MS/MS). […] The lower limit of quantification (LLQ) was 0.5 ng/mL, using a 50 μL aliquot of K2EDTA acidified plasma. The higher limit of quantification (HLQ) was 500 ng/mL. […]
QUANTITY: concentration at 24 h (ng/mL)
Give just the number in ng/mL; leave the unit off.

Which concentration at 24 h value belongs to CC(C)C1=C2[C@H]3CC[C@@H]4[C@@]5(C)CC[C@H](OC(=O)CC(C)(C)C(=O)O)C(C)(C)[C@@H]5CC[C@@]4(C)[C@]3(C)CC[C@@]2([C@@H](O)CN(CCN(C)C)Cc2ccc(Cl)cc2)CC1=O [GSK2838232] ?
6.09
